test system: MDA-MB-435; assay: Cytotoxicity against Homo sapiens (human) MDA-MB-435 cells after 48 hr by sulforhodamine B assay; assay type: functional; conditions: MDA-MB-435, 48 h, read-out: pTGI (converted)
Answer each item with its documented TGI.
Answers are plain numbers, in µM.

// known answers, use as guide
O=C(c1ccc(O)cc1)n1nc(-c2c(Cl)cccc2Cl)sc1=S : 31.6
O=C(N/N=c1\scc(-c2ccc(Cl)cc2)n1-c1ccc(Cl)cc1Cl)c1ccc(O)cc1 : 22.9

Each of the following entries comes with a recorded value; kindly state TGI for each.
1. COc1ccc(-c2cs/c(=N\NC(=O)c3ccc(O)cc3)n2-c2ccc(OC)cc2OC)cc1
2. Cc1ccc(-c2cs/c(=N\NC(=O)c3ccc(O)cc3)n2-c2c(C)cccc2C)cc1

Reply:
1. 22.9
2. 85.1

###

test system: HOP-92; assay: Cytotoxicity against Homo sapiens (human) HOP92 cells after 48 hr by sulforhodamine B assay; assay type: functional; details: HOP-92, 48 h
REPORTED_METRIC: LC50 (µM)
Answers are plain numbers, in µM.

O=C(c1ccc(O)cc1)n1nc(-c2c(Cl)cccc2Cl)sc1=S : 43.7

Ask: Please give the documented LC50 of `O=C(N/N=c1\scc(-c2ccc(Cl)cc2)n1-c1ccc(Cl)cc1Cl)c1ccc(O)cc1`
Reply: 49

###

Answer each item with its documented TGI.
test system: NCI-H522; assay: Cytotoxicity against Homo sapiens (human) NCI-H522 cells after 48 hr by sulforhodamine B assay; format: functional; conditions: NCI-H522, 48 h, read-out: pTGI (converted)
Numbers only, in µM.

COc1ccc(-c2cs/c(=N\NC(=O)c3ccc(O)cc3)n2-c2ccc(OC)cc2OC)cc1 : 20
O=C(c1ccc(O)cc1)n1nc(-c2c(Cl)cccc2Cl)sc1=S : 41.7

Now look at this entry.
Ask: Please give the documented TGI of `O=C(N/N=c1\scc(-c2ccc(Cl)cc2)n1-c1ccc(Cl)cc1Cl)c1ccc(O)cc1`
Reply: 20

###

system: OVCAR-3; assay: Cytotoxicity against Homo sapiens (human) OVCAR3 cells after 48 hr by sulforhodamine B assay; format: functional; conditions: OVCAR-3, 48 h, read-out: pTGI (converted)
Answer each item with its documented TGI.
# output: numeric value plus its unit

// known answers, use as guide
COc1ccc(-n2c(-c3ccc(Cl)cc3)cs/c2=N\NC(=O)c2ccc(O)cc2)c(OC)c1 : 83.2 µM
O=C(c1ccc(O)cc1)n1nc(-c2c(Cl)cccc2Cl)sc1=S : 28.8 µM
Cc1ccc(-c2cs/c(=N\NC(=O)c3ccc(O)cc3)n2-c2c(C)cccc2C)cc1 : 47.9 µM

Ask: Please give the documented TGI of `COc1ccc(-c2cs/c(=N\NC(=O)c3ccc(O)cc3)n2-c2ccc(OC)cc2OC)cc1`
Reply: 17 µM

###

test system: Malme-3M; assay: Cytotoxicity against Homo sapiens (human) MALME-3M cells after 48 hr by sulforhodamine B assay; assay type: functional; conditions: read-out: pTGI (converted)
Answer each item with its documented TGI.
Numbers only, in µM.

Each of the following entries comes with a recorded value; kindly state TGI for each.
1. Cc1ccc(-c2cs/c(=N\NC(=O)c3ccc(O)cc3)n2-c2c(C)cccc2C)cc1
2. COc1ccc(-c2cs/c(=N\NC(=O)c3ccc(O)cc3)n2-c2ccc(OC)cc2OC)cc1
3. COc1ccc(-n2c(-c3ccc(Cl)cc3)cs/c2=N\NC(=O)c2ccc(O)cc2)c(OC)c1
4. O=C(c1ccc(O)cc1)n1nc(-c2c(Cl)cccc2Cl)sc1=S

Reply:
1: 85.1; 2: 64.6; 3: 91.2; 4: 49
